// IC50 lookup, one value per entry
Target: human orexin type 1 receptor (hOX1R) (Homo sapiens)
Sequence (O43613 whole entry): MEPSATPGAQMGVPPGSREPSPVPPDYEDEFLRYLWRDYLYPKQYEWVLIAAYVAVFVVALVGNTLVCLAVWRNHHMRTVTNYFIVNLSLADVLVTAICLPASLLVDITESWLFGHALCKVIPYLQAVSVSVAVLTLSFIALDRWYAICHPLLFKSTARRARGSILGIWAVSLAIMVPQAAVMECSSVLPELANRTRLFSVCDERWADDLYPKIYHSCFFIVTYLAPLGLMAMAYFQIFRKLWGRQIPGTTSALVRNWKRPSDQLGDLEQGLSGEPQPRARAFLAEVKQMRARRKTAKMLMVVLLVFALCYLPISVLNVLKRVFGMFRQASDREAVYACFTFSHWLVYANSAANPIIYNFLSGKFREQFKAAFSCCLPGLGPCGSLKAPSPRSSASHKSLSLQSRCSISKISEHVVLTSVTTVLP
Test: Orexin receptor antagonistic activity, intracellular Ca2+ fluorescence (FDSS) in CHO cells expressing hOX1R
Details: CHO cells forced to express hOX1R; orexin-A analogue peptide ligand 300 pM; Fluo-4 maximum fluorescence; read-out: IC50 value OX1R
value kind: IC50 (nM)

1. Cc1ccc(-n2nccn2)c(C(=O)N(CCF)CCn2ccc(-c3ccc(F)cn3)n2)c1 | 3.7
2. CCN(CCn1ccc(-c2ccc(F)cn2)n1)C(=O)c1ccc(F)cc1-c1ncccn1 | 7.1
3. Cc1ccc(-n2nccn2)c(C(=O)NCCn2cc(-c3ccc(F)cn3)cn2)c1 | 1040
4. CCN(CCn1ccc(-c2cccc(C(F)(F)F)n2)n1)C(=O)c1cc(C)ccc1-n1nccn1 | 1.1
5. CCN(CCn1cc(-c2ccc(F)cn2)cn1)C(=O)c1cc(C)ccc1-n1nccn1 | 6
6. Cc1ccc(-n2nccn2)c(C(=O)N(CCn2cc(-c3ccc(F)cn3)cn2)C(C)C)c1 | 597
7. CCN(CCn1ccc(-c2ccc(F)cn2)n1)C(=O)c1c(F)cccc1-n1nccn1 | 38.7
8. CCN(CCn1ccc(-c2ccc(F)cn2)n1)C(=O)c1cc(Cl)ccc1-n1nccn1 | 6.5

###

Target: orexin type 2 receptor (hOX2R) (Homo sapiens)
Sequence (O43614 1-444): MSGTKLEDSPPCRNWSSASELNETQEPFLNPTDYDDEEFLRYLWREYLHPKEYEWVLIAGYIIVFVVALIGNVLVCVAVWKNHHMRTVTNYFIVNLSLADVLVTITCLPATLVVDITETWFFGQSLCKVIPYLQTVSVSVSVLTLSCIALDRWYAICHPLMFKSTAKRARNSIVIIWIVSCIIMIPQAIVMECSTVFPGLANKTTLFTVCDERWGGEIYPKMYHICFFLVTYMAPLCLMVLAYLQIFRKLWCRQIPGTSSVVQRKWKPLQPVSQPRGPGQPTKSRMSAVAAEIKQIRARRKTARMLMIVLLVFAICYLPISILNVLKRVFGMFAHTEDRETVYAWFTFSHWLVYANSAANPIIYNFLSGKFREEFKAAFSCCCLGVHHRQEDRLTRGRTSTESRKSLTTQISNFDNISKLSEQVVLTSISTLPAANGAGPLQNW
Test: Orexin receptor antagonistic activity, intracellular Ca2+ fluorescence (FDSS) in CHO cells expressing hOX2R
Conditions: CHO cells forced to express hOX2R; orexin-A analogue peptide ligand 3 nM; Fluo-4 maximum fluorescence; read-out: IC50 value OX2R
pIC50: −log10 of the molar value.
// pIC50 lookup, one value per entry
value kind: pIC50

1) CCN(CCn1ccc(-c2ccc(F)cn2)n1)C(=O)c1cc(C)ccc1-n1nccn1 | 8.41
2) CCN(CCn1ccc(-c2ccc(F)cn2)n1)C(=O)c1cc(Cl)ccc1-n1nccn1 | 8.66
3) CCN(CCn1cc(-c2ccc(F)cn2)cn1)C(=O)c1cc(C)ccc1-n1nccn1 | 7.84
4) CCN(CCn1ccc(-c2ccc(F)cn2)n1)C(=O)c1cccc(F)c1-n1nccn1 | 7.99
5) CN(CCn1ccc(-c2ccc(F)cn2)n1)C(=O)c1cc(F)ccc1-n1nccn1 | 6.88
6) CCN(CCn1ccc(-c2ccc(F)cn2)n1)C(=O)c1cc(Cl)ccc1-c1ncccn1 | 8.46
7) Cc1ccc(-n2nccn2)c(C(=O)N(CCn2ccc(-c3ccc(F)cn3)n2)C2CC2)c1 | 8.74
8) Cc1ccc(-n2nccn2)c(C(=O)N(C)CCn2ccc(-c3ccc(F)cc3)n2)c1 | 8.06
9) CCN(CCn1ccc(-c2ccc(F)cn2)n1)C(=O)c1c(F)cccc1-c1ncccn1 | 6.83
10) Cc1ccc(-n2nccn2)c(C(=O)N(CCn2cc(-c3ccc(F)cc3)cn2)CC2CC2)c1 | 8.59
11) CCN(CCn1ccc(-c2ccc(F)cn2)n1)C(=O)c1cc(OC)ccc1-n1nccn1 | 6.67
12) Cc1ccc(-n2nccn2)c(C(=O)N(CCn2ccc(-c3ccc(F)cn3)n2)CC2CC2)c1 | 8.66
13) Cc1ccc(-n2nccn2)c(C(=O)N(CCn2ccc(-c3ccc(F)cc3)n2)CC2CC2)c1 | 8.40
14) Cc1ccc(-n2nccn2)c(C(=O)N(CCn2ccc(-c3ccc(F)cn3)n2)C2COC2)c1 | 7.57
15) CCN(CCn1ccc(-c2ccc(C(F)(F)F)cn2)n1)C(=O)c1cc(C)ccc1-n1nccn1 | 6.40
16) Cc1ccc(-n2nccn2)c(C(=O)N(CCn2ccc(-c3ccccc3)n2)CC2CC2)c1 | 8.21
17) CCN(CCn1ccc(-c2ccc(F)cn2)n1)C(=O)c1ccc(C)cc1-n1nccn1 | 8.15
18) CCN(CCn1ccc(-c2ccc(F)c(F)c2)n1)C(=O)c1cc(F)ccc1-c1ncccn1 | 8.11
19) CCN(CCn1ccc(-c2cccc(C)n2)n1)C(=O)c1cc(C)ccc1-n1nccn1 | 8.66
20) CCN(CCn1ccc(-c2cccc(C(F)(F)F)n2)n1)C(=O)c1cc(C)ccc1-n1nccn1 | 8.89
21) CCN(CCn1ccc(-c2ccc(F)cn2)n1)C(=O)c1ccccc1-n1nccn1 | 8.18
22) CCN(CCn1cc(-c2ccc(F)cn2)cn1)C(=O)c1cc(F)ccc1-n1nccn1 | 7.02
23) CCN(CCn1cc(-c2ccc(F)cn2)cn1)C(=O)c1cc(Cl)ccc1-n1nccn1 | 8.64
24) Cc1ccc(-n2nccn2)c(C(=O)N(CCn2cc(-c3ccc(F)cn3)cn2)C2CC2)c1 | 7.81
25) CCN(CCn1ccc(-c2cc(C(F)(F)F)ccn2)n1)C(=O)c1cc(C)ccc1-n1nccn1 | 6.90
26) CCN(CCn1cc(-c2ccc(F)cn2)cn1)C(=O)c1cc(C)ccc1-c1ncccn1 | 7.05
27) Cc1ccc(-n2nccn2)c(C(=O)N(CCn2ccc(-c3ccc(F)cn3)n2)C(C)C)c1 | 7.36
28) Cc1ccc(-n2nccn2)c(C(=O)N(C)CCn2cc(-c3ccc(F)cn3)cn2)c1 | 7.33
29) CCN(CCn1ccc(-c2ccc(F)c(F)c2)n1)C(=O)c1ccccc1-c1ncccn1 | 8.25
30) Cc1ccc(-n2nccn2)c(C(=O)N(C)CCn2cc(-c3ccc(F)cc3)cn2)c1 | 8.15
31) CCN(CCn1ccc(-c2ccc(F)cn2)n1)C(=O)c1ccc(F)cc1-n1nccn1 | 7.53
32) Cc1ccc(-n2nccn2)c(C(=O)N(CCF)CCn2ccc(-c3ccc(F)cn3)n2)c1 | 7.69
33) Cc1ccc(-n2nccn2)c(C(=O)NCCn2ccc(-c3ccc(F)cn3)n2)c1 | 6.22
